Examples of compounds with documented inhibition (INH) follow.
- System: Rattus norvegicus
- experiment_description: Anti-inflammatory activity in rat assessed as inhibition of arachidonic acid-induced paw edema dosed at equimolar oral dose relative to 10 mg/kg, po indomethacin dosed 30 mins before arachidonic acid injection and measured 1 hr after arachidonic acid injection
- Type: functional

| sample_smiles | inhibition (INH) |
| --- | --- |
| O=c1nc(-c2ccccc2)c(-c2ccccc2)nn1Cc1nnc(-c2ccc(O)cc2O)o1 | 19.19% |
| O=c1nc(-c2ccccc2)c(-c2ccccc2)nn1Cc1nnc(-c2ccc([N+](=O)[O-])cc2)o1 | 12.26% |
| COc1ccc(-c2nnc(Cn3nc(-c4ccccc4)c(-c4ccccc4)nc3=O)o2)cc1 | 13.71% |
| O=c1nc(-c2ccccc2)c(-c2ccccc2)nn1Cc1nnc(-c2ccc(Cl)cc2)o1 | 17.58% |
| Nc1ccc(-c2nnc(Cn3nc(-c4ccccc4)c(-c4ccccc4)nc3=O)o2)cc1 | 16.45% |

The measurements presented in this section are drawn from ChEMBL document CHEMBL3608207.
